test system: Providencia stuartii; test: Antibiotic resistance characterization of clinical isolate; format: cell-based; settings: University Hospital Pontchaillou
Observed property: antibiotic resistance/sensitivity of the strain

NC[C@H]1O[C@H](O[C@H]2[C@H](O)[C@@H](O[C@H]3O[C@H](CO)[C@@H](O)[C@H](N)[C@H]3O)[C@H](N)C[C@@H]2N)[C@H](O)[C@@H](O)[C@@H]1O : sensitive
CC[C@H]1OC(=O)[C@H](C)[C@@H](O[C@H]2C[C@@](C)(OC)[C@@H](O)[C@H](C)O2)[C@H](C)[C@@H](O[C@@H]2O[C@H](C)C[C@H](N(C)C)[C@H]2O)[C@](C)(O)C[C@@H](C)C(=O)[C@H](C)[C@@H](O)[C@]1(C)O : resistant
O=C(N[C@H](CO)[C@H](O)c1ccc([N+](=O)[O-])cc1)C(Cl)Cl : sensitive
CC1(C)S[C@@H]2[C@H](NC(=O)[C@H](N)c3ccccc3)C(=O)N2[C@H]1C(=O)O : resistant
